# test_target: PI3K (Homo sapiens)
# Construct: PI3 Kinase γ IC50; other: PI3 Kinase γ; other: PI3 Kinase γ isoform, fluorescence polarization
# Sequence (P48736 whole entry, canonical isoform): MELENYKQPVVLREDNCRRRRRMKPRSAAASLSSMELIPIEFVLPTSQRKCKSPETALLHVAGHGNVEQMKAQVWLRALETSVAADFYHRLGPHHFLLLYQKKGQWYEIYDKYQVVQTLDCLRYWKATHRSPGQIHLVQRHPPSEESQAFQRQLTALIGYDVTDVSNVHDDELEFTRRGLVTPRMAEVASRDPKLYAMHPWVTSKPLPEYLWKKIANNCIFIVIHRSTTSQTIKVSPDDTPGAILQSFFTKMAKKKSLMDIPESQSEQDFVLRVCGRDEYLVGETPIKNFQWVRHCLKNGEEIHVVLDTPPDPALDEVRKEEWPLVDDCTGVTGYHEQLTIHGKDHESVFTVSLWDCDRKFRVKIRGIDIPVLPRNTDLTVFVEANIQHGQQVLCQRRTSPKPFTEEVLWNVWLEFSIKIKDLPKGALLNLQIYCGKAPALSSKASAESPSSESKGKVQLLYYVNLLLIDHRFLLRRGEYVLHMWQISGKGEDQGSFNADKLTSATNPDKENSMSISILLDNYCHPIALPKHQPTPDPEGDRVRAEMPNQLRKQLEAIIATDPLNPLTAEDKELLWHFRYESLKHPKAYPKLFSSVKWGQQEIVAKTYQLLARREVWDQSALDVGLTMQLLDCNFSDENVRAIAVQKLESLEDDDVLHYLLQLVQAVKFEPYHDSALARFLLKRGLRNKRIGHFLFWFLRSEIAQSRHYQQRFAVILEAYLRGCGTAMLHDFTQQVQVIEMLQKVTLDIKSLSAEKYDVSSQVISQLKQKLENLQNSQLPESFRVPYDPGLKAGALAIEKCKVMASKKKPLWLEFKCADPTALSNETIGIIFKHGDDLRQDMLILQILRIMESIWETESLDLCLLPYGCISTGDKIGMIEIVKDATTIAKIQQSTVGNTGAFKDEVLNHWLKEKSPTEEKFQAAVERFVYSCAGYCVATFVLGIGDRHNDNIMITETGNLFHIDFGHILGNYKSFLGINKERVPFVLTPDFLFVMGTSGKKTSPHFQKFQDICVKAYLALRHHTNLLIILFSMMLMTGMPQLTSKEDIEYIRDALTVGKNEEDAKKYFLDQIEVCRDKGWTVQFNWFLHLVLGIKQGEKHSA
# procedure_details: Fluorescence polarization assay for PI3K
# Format: biochemical
# details: PI3 Kinase γ; read-out: PI3 Kinase γ IC50
assay_metric: IC50 (µM)
The reply should contain only the number, in µM.

1) O=C(Nc1ccc(-c2nc(N3C4CCC3COC4)c3cnn(CC(F)(F)F)c3n2)cc1)Nc1cccnc1
3.01

IC50 measured on CNC(=O)Nc1ccc(-c2nc(N3CC4CCC(C3)O4)c3cnn(C4CCC(O)CC4)c3n2)cc1 (stereo not shown) [Example 107] = 5
